The values you see were collected from patent US10770169B2.

- Tested on: panel of 55 breast cancer cell lines
- ASSAY NAME: Cell growth inhibition assay (Cell Titer Glo, 72 h, 9 doses; GI50, TGI, LC50)
- Format: cell-based, human
- MEASUREMENT SETUP: Homo sapiens, ZR-75B, ZR75B cell line; censored GI50 values; read-out: GI50 (converted)
The threshold is 100 nM. Values of GI50 beneath it are tagged Condition met; values meeting or exceeding it are tagged Condition not met.

COc1cc(Nc2c(C#N)cnc3cc(OCCCN4CCN(C)CC4)c(OC)cc23)c(Cl)cc1Cl [Bosutinib] = Condition not met
Cc1[nH]c2ccccc2c1CCNCc1ccc(/C=C/C(=O)NO)cc1 [LBH589] = Condition met
COc1cccc2c1C(=O)c1c(O)c3c(c(O)c1C2=O)C[C@@](O)(C(=O)CO)C[C@@H]3O[C@H]1C[C@H](N)[C@@H](O)[C@H](C)O1 [Epirubicin] = Condition not met
Cn1c(=O)n(-c2ccc(C(C)(C)C#N)cc2)c2c3cc(-c4cnc5ccccc5c4)ccc3ncc21 [BEZ235] = Condition not met
COC1=C2C[C@@H](C)C[C@H](OC)[C@H](O)[C@@H](C)/C=C(\C)[C@H](OC(N)=O)[C@@H](OC)/C=C\C=C(/C)C(=O)NC(=CC1=O)C2=O [Geldanamycin] = Condition met

====

- System: panel of 55 breast cancer cell lines
- ASSAY NAME: Cell growth inhibition assay (Cell Titer Glo, 72 h, 9 doses; GI50, TGI, LC50)
- Type: cell-based, human
- MEASUREMENT SETUP: Homo sapiens, SK-BR-3, SKBR3 cell line; censored GI50 values; read-out: GI50 (converted)
The threshold is 3 µM. Values of GI50 beneath it are tagged y; values meeting or exceeding it are tagged n.

C/C(=C\c1csc(C)n1)[C@@H]1C[C@@H]2O[C@]2(C)CCC[C@H](C)[C@H](O)[C@@H](C)C(=O)C(C)(C)[C@@H](O)CC(=O)N1 [Ixabepilone] = y
CC[C@@]1(O)C(=O)OCc2c1cc1n(c2=O)Cc2cc3c(CN(C)C)c(O)ccc3nc2-1 = y
CO[C@H]1C[C@@H]2CC[C@@H](C)[C@@](O)(O2)C(=O)C(=O)N2CCCC[C@H]2C(=O)O[C@H]([C@H](C)C[C@@H]2CC[C@@H](O)[C@H](OC)C2)CC(=O)[C@H](C)/C=C(\C)[C@@H](O)[C@@H](OC)C(=O)[C@H](C)C[C@H](C)/C=C/C=C/C=C/1C = y
CC/C(=C(\c1ccccc1)c1ccc(OCCN(C)C)cc1)c1ccccc1 = n
C#Cc1cccc(Nc2ncnc3cc(OCCOC)c(OCCOC)cc23)c1 = n
COc1cc2ncnc(Nc3ccc(F)c(Cl)c3)c2cc1OCCCN1CCOCC1 = y

====

- Test system: panel of 55 breast cancer cell lines
- ASSAY NAME: Cell growth inhibition assay (Cell Titer Glo, 72 h, 9 doses; GI50, TGI, LC50)
- Format: cell-based, human
- MEASUREMENT SETUP: Homo sapiens, SUM52PE, cell line SUM52PE; read-out: GI50 (converted)
MEASURED PARAMETER: GI50 (µM)

Nc1nc2[nH]cc(CCc3ccc(C(=O)N[C@@H](CCC(=O)O)C(=O)O)cc3)c2c(=O)[nH]1 [Pemetrexed] = 2950
CC[C@@]1(O)C(=O)OCc2c1cc1n(c2=O)Cc2cc3c(CN(C)C)c(O)ccc3nc2-1 [Topotecan] = 0.00832
NS(=O)(=O)OC[C@@H]1C[C@@H](n2ccc3c(N[C@H]4CCc5ccccc54)ncnc32)C[C@@H]1O [MLN4924] = 0.398
COc1cc([C@@H]2c3cc4c(cc3[C@@H](O[C@@H]3O[C@@H]5CO[C@@H](C)O[C@H]5[C@H](O)[C@H]3O)[C@H]3COC(=O)[C@H]23)OCO4)cc(OC)c1O [Etoposide] = 2.57
COc1cccc2c1C(=O)c1c(O)c3c(c(O)c1C2=O)C[C@@](O)(C(=O)CO)C[C@@H]3O[C@H]1C[C@H](N)[C@@H](O)[C@H](C)O1 [Epirubicin] = 0.295
CC(C)C[C@H](NC(=O)[C@H](Cc1ccccc1)NC(=O)c1cnccn1)B(O)O [Bortezomib] = 0.00525
COc1cccc2c1C(=O)c1c(O)c3c(c(O)c1C2=O)C[C@@](O)(C(=O)CO)C[C@@H]3O[C@H]1C[C@H](N)[C@H](O)[C@H](C)O1 [Doxorubicin] = 0.0977
